# System: VPS34
# Construct: gene PIK3C3
# condition.description: Compound Concentration (nM):1000;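 also: KINOMEscan scanMAX binding as percent activity remaining versus control; lower means stronger binding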
measured.metric: Percent Control (%)
Give bare numbers, in %.

Examples with their reported Percent Control follow.
compound: COc1cccc(-n2ncc3c(N/N=C/c4ccncc4)ncnc32)c1 [GW784752X]
measured.metric: Percent Control
unit.label: %
measured.number: 100
--
compound: Nc1ncnc2occ(-c3ccc(NC(=O)Nc4cc(C(F)(F)F)ccc4F)cc3)c12 [GW770249X]
measured.metric: Percent Control
unit.label: %
measured.number: 100

Give Percent Control for each of the items listed below.
1. COc1ccc(COc2ccc(Cc3cnc(N)nc3N)cc2OC)cc1 [GW632580X]
2. NS(=O)(=O)c1ccc(N/N=C2\C(=O)Nc3ccc(Cl)cc32)cc1 [GW280670X]

*A*
1: 67; 2: 100

Give Percent Control for each of the items listed below.
1. CC1=C(C(=O)Nc2ccc3[nH]ncc3c2)C(c2ccc(Cl)c(Cl)c2)CC(=O)N1 (centres unmarked) [GSK299115A]
2. O=C(Nc1n[nH]c2nc(-c3ccc(O)cc3)c(Br)cc12)C1CC1 [SB-725317]
3. COc1cc(C=NNc2ncnc3c2cnn3-c2ccccc2)ccc1O [GW513184X]
4. COc1ccc2cc(-c3c(-c4ccncc4)nc(-c4ccc(S(C)(=O)=O)cc4C)n3C)ccc2c1 [SB-633825]
5. COc1cc(/C=N/Nc2ncnc3[nH]ncc23)ccc1O [GW578748X]
6. CCn1c(-c2nonc2N)nc2c(C#CC(C)(C)O)nc(OCCNC)cc21.Cl [GSK949675]

*A*
1: 83; 2: 100; 3: 100; 4: 86; 5: 87; 6: 100

Give Percent Control for each of the items listed below.
1. O=C1Nc2ccc(C(=O)c3ccco3)cc2C1=Cc1cc(Cl)c(O)c(Cl)c1 [GW406108X]
2. CN1CCN(C(=O)c2ccc(NC(=O)Nc3ccc(N(C)c4ccnc(Nc5ccc(CS(C)(=O)=O)cc5)n4)cc3)cc2)CC1.Cl [GW830263A]
3. CC(C)COC(=O)c1ccc2c(c1)/C(=C/Nc1ccc(S(N)(=O)=O)cc1)C(=O)N2 [GW416981X]
4. Cl.c1ccc(Cc2nc3ccc(Nc4ncnc5ccccc45)cc3[nH]2)cc1 [GR269666A]
5. COc1cc2ncnc(Nc3ccc4c(cnn4Cc4ccccc4)c3)c2cc1OC.Cl [GW282449A]
6. Cl.O=C(O[C@H]1CN[C@H](C#Cc2cc3ncnc(Nc4ccc5c(cnn5Cc5ccccc5)c4)c3s2)C1)N1CCOCC1 [GSK200398A]

*A*
1: 11; 2: 74; 3: 100; 4: 100; 5: 100; 6: 98

*Q* Specify measured Percent Control for Cl.O=S1CCN(Cc2ccc(-c3ccc4ncnc(Nc5ccc(OCc6ccccc6)c(F)c5)c4c3)o2)CC1 [GW576924A] .
*A* 100

---

Assignment: determine reported Percent Control for the given compounds.
# Test system: MAP3K15
# condition.description: Compound Concentration (nM):1000
One number for each entry, in %.

Give Percent Control for each of the items listed below.
1. C/C(Nc1ccc(S(N)(=O)=O)cc1)=C1/C(=O)Nc2ccccc21 [GW335962X]
2. NS(=O)(=O)c1ccc(N/N=C2\C(=O)Nc3ccc(C(=O)NCc4ccncc4)cc32)cc1 [GW300657X]
3. CCS(=O)(=O)c1ccc(OC)c(Nc2ncc(-c3cccc(OC)c3)o2)c1 [GW580509X]
4. Cl.O=C(Nc1ccc(Oc2ccc3[nH]c(NC(=O)c4ccco4)nc3c2)cc1)Nc1cc(C(F)(F)F)ccc1F [GW683134A]
5. CC(C)COC(=O)c1ccc2c(c1)/C(=C/Nc1ccc(S(N)(=O)=O)cc1)C(=O)N2 [GW416981X]

*A*
93
80
100
90
100

---

# Tested on: KIT
# condition.description: Compound Concentration (nM):1000
Assignment: determine reported Percent Control for the given molecules.
Numbers only, in %.

Examples with their reported Percent Control follow.
molecule: Cl.O=C(Nc1ccc(Oc2ccc3[nH]c(NC(=O)c4ccccc4)nc3c2)cc1)Nc1cc(C(F)(F)F)ccc1F [GW709042A]
Percent Control [%]: 1.4
//
molecule: CC1=C(C(=O)Nc2ccc3[nH]ncc3c2)C(c2ccc3ccccc3c2)CC(=O)N1 (stereo not shown) [GSK270822A]
Percent Control [%]: 80
//
molecule: COc1cccc(-c2c[nH]c3c(N/N=C/c4ccncc4)ncnc23)c1 [GW814408X]
Percent Control [%]: 5

Now examine the next entry.
*Q* Specify measured Percent Control for CN(C)CCNC(=O)Nc1ccc(N(C)c2ccnc(Nc3ccc(CS(C)(=O)=O)cc3)n2)cc1.Cl [GW830900A] .
*A* 0.1

---

# Tested on: RIPK1
# condition.description: Compound Concentration (nM):1000
Assignment: determine reported Percent Control for the given compounds.
One number for each entry, in %.

compound: COc1ccc2[nH]c3c4[nH]c5ccc(OC)cc5c4c4c(c3c2c1)C(=O)NC4=O [GW296115X]
unit.label: %
measured.number: 90
--
compound: CCS(=O)(=O)c1ccc(OC)c(Nc2ncc(-c3cccc(F)c3)o2)c1 [GW621970X]
unit.label: %
measured.number: 85
--
compound: COc1cc(N2CCN(C(C)C)CC2)ccc1Nc1nc(Nc2ccc(F)cc2C(=O)NC[C@@H](O)CO)c2cc[nH]c2n1 [GSK1392956A]
unit.label: %
measured.number: 76
--
compound: CC1=C(C(=O)Nc2ccc3[nH]ncc3c2)C(c2ccc3ccccc3c2)CC(=O)N1 (stereo not shown) [GSK270822A]
unit.label: %
measured.number: 97
--
compound: CCn1c(-c2nonc2N)nc2c(C#CC(C)(C)O)nc(OCCNC)cc21.Cl
unit.label: %
measured.number: 100
--
compound: COc1cc(C=NNc2ncnc3c2cnn3-c2ccccc2)ccc1O [GW513184X]
unit.label: %
measured.number: 96
--
compound: Nc1ncnc2occ(-c3ccc(NC(=O)Nc4cc(C(F)(F)F)ccc4F)cc3)c12 [GW770249X]
unit.label: %
measured.number: 26
--
compound: CC1=C(C(=O)Nc2ccc3[nH]ncc3c2)C(c2ccc(Cl)c(Cl)c2)CC(=O)N1 (stereo not shown) [GSK299115A]
unit.label: %
measured.number: 77

Give Percent Control for each of the items listed below.
1. COc1ccc2c(-c3ccnc(Nc4cccc(OC(F)(F)F)c4)n3)cnn2n1 [GW810372X]
2. CN1CCN(C(=O)c2ccc(NC(=O)Nc3ccc(N(C)c4ccnc(Nc5ccc(CS(C)(=O)=O)cc5)n4)cc3)cc2)CC1.Cl [GW830263A]
3. COc1ccc(COc2ccc(Cc3cnc(N)nc3N)cc2OC)cc1 [GW632580X]

*A*
[100, 100, 95]

Give Percent Control for each of the items listed below.
1. Cl.O=S1CCN(Cc2ccc(-c3ccc4ncnc(Nc5ccc(OCc6ccccc6)c(F)c5)c4c3)o2)CC1 [GW576924A]
2. COc1cc(/C=N/Nc2ncnc3[nH]ncc23)ccc1O [GW578748X]
3. NS(=O)(=O)c1ccc(Nc2ncc(-c3ccccc3)o2)cc1 [GW572399X]
4. CN(C)CCNC(=O)Nc1ccc(N(C)c2ccnc(Nc3ccc(CS(C)(=O)=O)cc3)n2)cc1.Cl [GW830900A]
5. COc1cccc(-c2c[nH]c3c(N/N=C/c4ccncc4)ncnc23)c1 [GW814408X]
6. COc1ccc2cc(-c3c(-c4ccncc4)nc(-c4ccc(S(C)(=O)=O)cc4C)n3C)ccc2c1
7. NS(=O)(=O)c1ccc(N/N=C2\C(=O)Nc3ccc(C(=O)NCCc4c[nH]cn4)cc32)cc1 [GW300660X]

*A*
1. 100
2. 100
3. 100
4. 99
5. 100
6. 34
7. 100

Give Percent Control for each of the items listed below.
1. Cl.c1ccc(Cc2nc3ccc(Nc4ncnc5ccccc45)cc3[nH]2)cc1 [GR269666A]
2. Cc1cc(O)cc(C)c1/C=C/c1cncc(C(N)=O)c1 [GW435821X]
3. C/C(Nc1ccc(S(N)(=O)=O)cc1)=C1/C(=O)Nc2ccccc21 [GW335962X]

*A*
1. 100
2. 100
3. 96

*Q* Report Percent Control on RIPK1 for this entry: CCc1ccc(Oc2nccc(-c3c(-c4ccc(F)cc4)ncn3C3CCNCC3)n2)cc1
*A* 100

---

# Test system: KIT(V559D)
# condition.description: Compound Concentration (nM):1000
Assignment: determine reported Percent Control for the given molecules.
Numbers only, in %.

Give Percent Control for each of the items listed below.
1. CC(C)COC(=O)c1ccc2c(c1)/C(=C/Nc1ccc(S(N)(=O)=O)cc1)C(=O)N2 [GW416981X]
2. COc1ccccc1-c1cc(/C=C2\C(=O)Nc3ncc(Br)cc32)cc(Br)c1O [GW442130X]
3. COc1cccc(-c2c[nH]c3c(N/N=C/c4ccncc4)ncnc23)c1 [GW814408X]
4. COC(=O)Nc1nc2ccc(Oc3ccc(NC(=O)Nc4cc(C(F)(F)F)ccc4F)cc3)cc2s1.Cl [GW693917A]
5. CN(C)CCNC(=O)Nc1ccc(N(C)c2ccnc(Nc3ccc(CS(C)(=O)=O)cc3)n2)cc1.Cl [GW830900A]
6. CN1CCN(C(=O)c2ccc(NC(=O)Nc3ccc(N(C)c4ccnc(Nc5ccc(CS(C)(=O)=O)cc5)n4)cc3)cc2)CC1.Cl [GW830263A]
7. NS(=O)(=O)c1ccc(Nc2ncc(-c3ccccc3)o2)cc1 [GW572399X]

*A*
1: 100; 2: 65; 3: 1.7; 4: 0.2; 5: 0; 6: 0; 7: 26

*Q* Report Percent Control on KIT(V559D) for this entry: NS(=O)(=O)c1ccc(N/N=C2\C(=O)Nc3ccc(Cl)cc32)cc1 [GW280670X]
*A* 81
